# assayedTarget: Retinoic acid receptor RXR-gamma (Homo sapiens)
# Sequence (P48443 whole entry): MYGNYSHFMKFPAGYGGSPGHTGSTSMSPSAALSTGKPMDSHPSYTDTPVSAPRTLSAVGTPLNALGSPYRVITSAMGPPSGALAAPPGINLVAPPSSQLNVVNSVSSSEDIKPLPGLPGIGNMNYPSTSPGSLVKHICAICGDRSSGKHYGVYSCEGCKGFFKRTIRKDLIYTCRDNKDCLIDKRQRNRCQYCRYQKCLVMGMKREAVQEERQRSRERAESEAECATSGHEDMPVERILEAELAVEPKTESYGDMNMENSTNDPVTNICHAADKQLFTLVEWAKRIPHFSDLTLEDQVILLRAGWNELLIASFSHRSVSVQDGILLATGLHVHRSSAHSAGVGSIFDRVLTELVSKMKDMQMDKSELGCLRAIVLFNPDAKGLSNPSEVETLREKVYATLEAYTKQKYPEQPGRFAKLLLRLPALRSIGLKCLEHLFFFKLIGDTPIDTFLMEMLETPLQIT
# procedureDetails: Agonist activity at human RXRgamma transfected in human HEK293T cells co-expressing pFR/pRL-Luc incubated for 14 to 16 hrs by hybrid reporter gene assay
pEC50: −log10 of the molar value.
The entries below come with measured pEC50 values attached.

compoundStructure	assayedTarget	relationQualifier	pEC50
O=C(O)CCc1nc(-c2ccc(Cl)c(Cl)c2)c(-c2ccccc2)o1	Retinoic acid receptor RXR-gamma (Homo sapiens)	=	5.35
Cn1ccc(-n2nc(CCC(=O)O)cc2-c2cc(Cl)cc(Cl)c2)n1	Retinoic acid receptor RXR-gamma (Homo sapiens)	<	4.52
O=C(O)CCc1cc(-c2cc(Cl)cc(Cl)c2)n(-c2ccc(F)cc2)n1	Retinoic acid receptor RXR-gamma (Homo sapiens)	=	5.79
COc1cccc(-c2oc(CCC(=O)O)nc2-c2ccccc2)c1	Retinoic acid receptor RXR-gamma (Homo sapiens)	<	5.00
O=C(O)CCCc1nc(-c2ccccc2)c(-c2ccccc2)o1	Retinoic acid receptor RXR-gamma (Homo sapiens)	=	4.37
O=C(O)CCc1nc(-c2ccccc2)c(-c2cc(Cl)ccc2Cl)o1	Retinoic acid receptor RXR-gamma (Homo sapiens)	<	4.70
COc1ccc(-n2nc(CCC(=O)O)cc2-c2cc(Cl)cc(Cl)c2)cc1	Retinoic acid receptor RXR-gamma (Homo sapiens)	=	5.40
Cc1ccc(-c2nc(CCC(=O)O)oc2-c2ccccc2)cc1	Retinoic acid receptor RXR-gamma (Homo sapiens)	<	4.00
O=C(O)CCCc1cc(-c2cc(Cl)cc(Cl)c2)n(-c2ccc(Cl)cc2)n1	Retinoic acid receptor RXR-gamma (Homo sapiens)	=	5.52
Cc1ccc(-c2oc(CCC(=O)O)nc2-c2ccccc2)cc1	Retinoic acid receptor RXR-gamma (Homo sapiens)	<	5.00
CC(C)(C)c1cc(-c2oc(CCC(=O)O)nc2-c2ccccc2)cc(C(C)(C)C)c1	Retinoic acid receptor RXR-gamma (Homo sapiens)	=	6.30
Cc1ccc(-n2nc(CCC(=O)O)cc2-c2cc(Cl)cc(Cl)c2)cc1	Retinoic acid receptor RXR-gamma (Homo sapiens)	=	5.52
